# SUBJECT OF TEST: Cyclin-dependent kinase 7/ cyclin H (Homo sapiens)
# Sequence (P51946 whole entry): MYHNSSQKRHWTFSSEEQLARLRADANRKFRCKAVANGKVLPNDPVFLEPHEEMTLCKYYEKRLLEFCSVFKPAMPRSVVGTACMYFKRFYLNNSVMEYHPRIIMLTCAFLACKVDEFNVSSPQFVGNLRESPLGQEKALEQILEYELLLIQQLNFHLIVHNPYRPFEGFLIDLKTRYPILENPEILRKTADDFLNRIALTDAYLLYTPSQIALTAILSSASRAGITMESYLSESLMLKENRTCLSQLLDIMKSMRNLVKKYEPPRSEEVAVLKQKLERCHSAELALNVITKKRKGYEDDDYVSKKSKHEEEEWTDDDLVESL
# Sequence (P50613 whole entry): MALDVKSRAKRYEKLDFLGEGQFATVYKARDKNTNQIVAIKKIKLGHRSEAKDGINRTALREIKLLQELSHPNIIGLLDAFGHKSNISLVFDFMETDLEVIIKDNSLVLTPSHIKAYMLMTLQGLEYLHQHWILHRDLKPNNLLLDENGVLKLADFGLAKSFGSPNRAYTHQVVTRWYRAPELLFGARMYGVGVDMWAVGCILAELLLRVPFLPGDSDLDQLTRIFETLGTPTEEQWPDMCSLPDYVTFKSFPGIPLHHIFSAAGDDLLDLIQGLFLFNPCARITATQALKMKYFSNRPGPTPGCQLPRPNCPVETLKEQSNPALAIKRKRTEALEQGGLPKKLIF
# PROTOCOL NOTES: Inhibition of recombinant human full length CDK7/Cyclin H using peptide as substrate incubated for 40 mins in presence of [gamma-33P]-ATP by scintillation counting method
pKi: −log10 of the molar value.
REPORTED ENDPOINT: pKi

(I) CNc1nc(C)c(-c2nc(Nc3cccc(N4CCN5CCC4CC5)c3)ncc2C)s1
(II) CNc1nc(C)c(-c2nc(Nc3cccc(N4CCCNCC4)c3)ncc2C)s1
Lab note: check whether I or II shows the higher recorded pKi. Mark your answer with the label of the selected entry.
II
(II: 7.05, I: 6.26)

* * *

# SUBJECT OF TEST: CDK9/cyclin T1 (Homo sapiens)
# Sequence (O60563 whole entry): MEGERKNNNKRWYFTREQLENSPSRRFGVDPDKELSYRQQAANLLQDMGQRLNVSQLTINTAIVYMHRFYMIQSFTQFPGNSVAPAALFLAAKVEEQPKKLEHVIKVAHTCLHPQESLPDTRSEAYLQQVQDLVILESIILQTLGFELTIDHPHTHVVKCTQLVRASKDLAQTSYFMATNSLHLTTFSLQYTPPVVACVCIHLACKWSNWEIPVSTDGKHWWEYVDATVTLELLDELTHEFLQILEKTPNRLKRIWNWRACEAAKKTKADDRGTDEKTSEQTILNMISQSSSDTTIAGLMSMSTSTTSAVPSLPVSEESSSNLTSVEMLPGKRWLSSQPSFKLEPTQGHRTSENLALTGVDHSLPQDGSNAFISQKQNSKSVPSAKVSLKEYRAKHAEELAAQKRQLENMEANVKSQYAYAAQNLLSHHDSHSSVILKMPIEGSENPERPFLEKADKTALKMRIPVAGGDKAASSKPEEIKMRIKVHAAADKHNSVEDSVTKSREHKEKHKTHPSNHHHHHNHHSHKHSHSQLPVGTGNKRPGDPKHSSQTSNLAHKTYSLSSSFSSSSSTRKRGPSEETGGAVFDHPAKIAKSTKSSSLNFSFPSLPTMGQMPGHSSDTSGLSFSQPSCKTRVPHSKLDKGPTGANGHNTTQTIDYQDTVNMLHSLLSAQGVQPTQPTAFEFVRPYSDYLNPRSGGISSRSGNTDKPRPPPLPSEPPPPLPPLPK
# Sequence (P50750 whole entry): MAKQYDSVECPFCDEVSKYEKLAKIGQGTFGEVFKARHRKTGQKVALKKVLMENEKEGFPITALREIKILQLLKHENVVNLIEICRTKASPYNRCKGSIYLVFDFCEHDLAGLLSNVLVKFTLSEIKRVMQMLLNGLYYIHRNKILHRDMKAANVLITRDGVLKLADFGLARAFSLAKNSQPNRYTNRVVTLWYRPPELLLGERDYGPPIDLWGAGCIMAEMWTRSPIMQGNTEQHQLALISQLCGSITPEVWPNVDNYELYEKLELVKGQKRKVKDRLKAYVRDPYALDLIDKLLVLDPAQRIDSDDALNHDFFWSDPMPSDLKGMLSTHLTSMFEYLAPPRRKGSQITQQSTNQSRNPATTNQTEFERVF
# PROTOCOL NOTES: Inhibition of recombinant human full length CDK9/Cyclin T1 using KTFCGTPEYLAPEVRREPRILSEEEQEMFRDFDYIADWC as substrate incubated for 40 mins in presence of [gamma-33P]-ATP by scintillation counting method
pKi: −log10 of the molar value.
REPORTED ENDPOINT: pKi

{"CHEMICAL STRUCTURE": "CNc1nc(C)c(-c2nc(Nc3cccc(N4CCN(C(C)=O)CC4)c3)ncc2C(F)(F)F)s1", "pKi": 7.02}
{"CHEMICAL STRUCTURE": "CNc1nc(C)c(-c2nc(Nc3cccc(N4CCOCC4)c3)ncc2Cl)s1", "pKi": 8.40}
{"CHEMICAL STRUCTURE": "CNc1nc(C)c(-c2nc(Nc3cccc(N4CCNCC4)c3)ncc2C(F)(F)F)s1", "pKi": 7.31}

(A) CNc1nc(C)c(-c2nc(Nc3cccc(N4CCOCC4)c3)ncc2C)s1
(B) CNc1nc(C)c(-c2nc(Nc3cccc(N4CCN(C)CC4)c3)ncc2Cl)s1
Lab note: check whether A or B shows the higher recorded pKi. Mark your answer with the label of the selected entry.
B

* * *

# Organism: Homo sapiens
# PROTOCOL NOTES: Selectivity index, ratio of Ki for inhibition of recombinant human full length CDK2/Cyclin A to Ki for inhibition of recombinant human full length CDK9/Cyclin T1
REPORTED ENDPOINT: Ratio Ki

Please review the entries below; each comes with its answer.
{"CHEMICAL STRUCTURE": "CNc1nc(C)c(-c2nc(Nc3cc(N4CCN(C(C)=O)CC4)cc(N4CCN(C(C)=O)CC4)c3)ncc2C)s1", "Ratio Ki": 32}
{"CHEMICAL STRUCTURE": "CNc1nc(C)c(-c2ccnc(Nc3cc(N4CCN(C(C)=O)CC4)cc(N4CCN(C(C)=O)CC4)c3)n2)s1", "Ratio Ki": 11}
{"CHEMICAL STRUCTURE": "CNc1nc(C(C)C)c(-c2ccnc(Nc3cccc(N4CCN(C(C)=O)CC4)c3)n2)s1", "Ratio Ki": 8}

(P) CNc1nc(C)c(-c2nc(Nc3cc(C)cc(N4CCOCC4)c3)ncc2C#N)s1
(Q) CNc1nc(C)c(-c2nc(Nc3cccc(N4CCNCC4)c3)ncc2C)s1
(R) CNc1nc(C)c(-c2nc(Nc3cccc(N4CCOCC4)c3)ncc2Cl)s1
(S) CNc1nc(C)c(-c2nc(Nc3cc(N4CCN(C(C)=O)CC4)cc(N4CCN(C(C)=O)CC4)c3)ncc2C#N)s1
Task field, ranking: reported Ratio Ki, descending order. Respond with an ordered listing of the labels, as requested.
Q, S, R, P

(A) CC(=O)N1CCN(c2cccc(Nc3ncc4c(n3)-c3sc(N)nc3CC4)c2)CC1
(B) CNc1nc(C)c(-c2nc(Nc3cccc(N4CCN(C)CC4)c3)ncc2C)s1
(C) CNc1ncc(-c2ccnc(Nc3cccc(N4CCCNCC4)c3)n2)s1
(D) CNc1nc(C)c(-c2nc(Nc3cccc(N4CCN(S(C)(=O)=O)CC4)c3)ncc2C)s1
(E) CNc1nc(C)c(-c2ccnc(Nc3cc(N4CCOCC4)cc(N4CCOCC4)c3)n2)s1
Task field, ranking: reported Ratio Ki, descending order. Respond with an ordered listing of the labels, as requested.
B, E, D, C, A
(B: 29, E: 18, D: 12, C: 7, A: 2.5)

(a) C=Cc1cnc(Nc2cccc(N3CCOCC3)c2)nc1-c1sc(NC)nc1C
(b) CNc1nc(C)c(-c2nc(Nc3cccc(N4CCNCC4)c3)ncc2C(F)(F)F)s1
Lab note: check whether a or b shows the higher recorded Ratio Ki. Mark your answer with the label of the selected entry.
b
(b: 40, a: 8)

* * *

# SUBJECT OF TEST: CDK2/Cyclin A2 (Homo sapiens)
# PROTOCOL NOTES: Inhibition of recombinant human full length CDK2/Cyclin A using histone H1 as substrate incubated for 40 mins in presence of [gamma-33P]-ATP by scintillation counting method
pKi: −log10 of the molar value.
REPORTED ENDPOINT: pKi

{"CHEMICAL STRUCTURE": "CC(=O)N1CCN(c2cccc(Nc3ncc4c(n3)-c3sc(N)nc3CC4)c2)CC1", "SUBJECT OF TEST": "CDK2/Cyclin A2 (Homo sapiens)", "REPORTED ENDPOINT": "pKi", "RESULT": 7.06}
{"CHEMICAL STRUCTURE": "CNc1nc(C)c(-c2nc(Nc3cc(N4CCN(C(C)=O)CC4)cc(N4CCN(C(C)=O)CC4)c3)ncc2C)s1", "SUBJECT OF TEST": "CDK2/Cyclin A2 (Homo sapiens)", "REPORTED ENDPOINT": "pKi", "RESULT": 5.86}
{"CHEMICAL STRUCTURE": "CNc1nc(C)c(-c2nc(Nc3cccc(N4CCNCC4)c3)ncc2C(F)(F)F)s1", "SUBJECT OF TEST": "CDK2/Cyclin A2 (Homo sapiens)", "REPORTED ENDPOINT": "pKi", "RESULT": 5.71}
{"CHEMICAL STRUCTURE": "CNc1nc(C)c(-c2nc(Nc3cccc(N4CCN5CCC4CC5)c3)ncc2C)s1", "SUBJECT OF TEST": "CDK2/Cyclin A2 (Homo sapiens)", "REPORTED ENDPOINT": "pKi", "RESULT": 5.90}

(I) CNc1nc(C)c(-c2nc(Nc3cc(N4CCOCC4)cc(N4CCOCC4)c3)ncc2C#N)s1
(II) CNc1nc(C)c(-c2nc(Nc3cccc(N4CCNC(=O)CC4)c3)ncc2C)s1
(III) CNc1nc(C)c(-c2nc(Nc3cccc(N4CCN(C)CC4)c3)ncc2Cl)s1
(IV) CNc1nc(C)c(-c2ccnc(Nc3cc(N4CCN(C(C)=O)CC4)cc(N4CCN(C(C)=O)CC4)c3)n2)s1
Task field, ranking: reported pKi, descending order. Respond with an ordered listing of the labels, as requested.
I, III, II, IV
(I: 7.26, III: 6.97, II: 6.28, IV: 5.68)

(P) CNc1nc(C)c(-c2nc(Nc3cccc(N4CCNCC4)c3)ncc2C)s1
(Q) CNc1nc(C2CC2)c(-c2ccnc(Nc3cccc(C(=O)NC4CCN(C)CC4)c3)n2)s1
(R) CNc1nc(C)c(-c2ccnc(Nc3cccc(N4CCN(C(C)=O)CC4)c3)n2)s1
Form: Sort by [pKi] Order [ ascending ] Respond with an ordered listing of the labels, as requested.
P, R, Q

* * *

# System: MCF7
# PROTOCOL NOTES: Growth inhibition of human MCF7 cells after 48 hrs by MTT assay
# Assay type: functional
REPORTED ENDPOINT: GI50 (nM)

Please review the entries below; each comes with its answer.
{"CHEMICAL STRUCTURE": "CNc1nc(C)c(-c2nc(Nc3cc(C)cc(N4CCOCC4)c3)ncc2C#N)s1", "SUBJECT OF TEST": "MCF7", "GI50 (nM)": 950}
{"CHEMICAL STRUCTURE": "CNc1nc(C)c(-c2nc(Nc3cccc(N4CCN(C)CC4)c3)ncc2Cl)s1", "SUBJECT OF TEST": "MCF7", "GI50 (nM)": 680}

(1) CNc1nc(C(F)(F)F)c(-c2ccnc(Nc3cccc(N4CCCNCC4)c3)n2)s1
(2) CNc1nc(C)c(-c2ccnc(Nc3cccc(N4CCN(C(C)=O)CC4)c3)n2)s1
When the recorded GI50 values are compared, which is smaller: that of 1 or that of 2 ? Mark your answer with the label of the selected entry.
1
(1: 650 nM, 2: 5280 nM)

(a) CNc1nc(C)c(-c2nc(Nc3cccc(N4CCNCC4)c3)ncc2C(F)(F)F)s1
(b) CNc1nc(C)c(-c2nc(Nc3cccc(N4CCOCC4)c3)ncc2C)s1
(c) CNc1nc(C)c(-c2nc(Nc3cccc(N4CCN5CCC4CC5)c3)ncc2C)s1
Task field, ranking: reported GI50, descending order. Respond with an ordered listing of the labels, as requested.
a, c, b

* * *

# Organism: Homo sapiens
# PROTOCOL NOTES: Selectivity index, ratio of Ki for inhibition of recombinant human full length CDK2/Cyclin A to Ki for inhibition of recombinant human full length CDK9/Cyclin T1
REPORTED ENDPOINT: Ratio Ki

{"CHEMICAL STRUCTURE": "CNc1nc(C)c(-c2nc(Nc3cccc(N4CCCNCC4)c3)ncc2C)s1", "RESULT": 156}

(I) CNc1nc(C)c(-c2nc(Nc3cccc(N4CCN5CCC4CC5)c3)ncc2C)s1
(II) CNc1nc(C)c(-c2nc(Nc3cc(C)cc(N4CCCCCC4)c3)ncc2C#N)s1
(III) CNc1nc(C)c(-c2nc(Nc3cc(C)cc(N4CCNCC4)c3)ncc2C#N)s1
(IV) CNc1nc(C)c(-c2nc(Nc3cccc(N4CCN(C(C)=O)CC4)c3)ncc2C(F)(F)F)s1
Task field, ranking: reported Ratio Ki, descending order. Respond with an ordered listing of the labels, as requested.
I, IV, III, II
(I: 125, IV: 13, III: 8, II: 2)
